Consider the following molecules; for each one, report its pIC50.
# subject.of.test: Angiotensin-converting enzyme (Rattus norvegicus)
# Sequence (P47820 whole entry): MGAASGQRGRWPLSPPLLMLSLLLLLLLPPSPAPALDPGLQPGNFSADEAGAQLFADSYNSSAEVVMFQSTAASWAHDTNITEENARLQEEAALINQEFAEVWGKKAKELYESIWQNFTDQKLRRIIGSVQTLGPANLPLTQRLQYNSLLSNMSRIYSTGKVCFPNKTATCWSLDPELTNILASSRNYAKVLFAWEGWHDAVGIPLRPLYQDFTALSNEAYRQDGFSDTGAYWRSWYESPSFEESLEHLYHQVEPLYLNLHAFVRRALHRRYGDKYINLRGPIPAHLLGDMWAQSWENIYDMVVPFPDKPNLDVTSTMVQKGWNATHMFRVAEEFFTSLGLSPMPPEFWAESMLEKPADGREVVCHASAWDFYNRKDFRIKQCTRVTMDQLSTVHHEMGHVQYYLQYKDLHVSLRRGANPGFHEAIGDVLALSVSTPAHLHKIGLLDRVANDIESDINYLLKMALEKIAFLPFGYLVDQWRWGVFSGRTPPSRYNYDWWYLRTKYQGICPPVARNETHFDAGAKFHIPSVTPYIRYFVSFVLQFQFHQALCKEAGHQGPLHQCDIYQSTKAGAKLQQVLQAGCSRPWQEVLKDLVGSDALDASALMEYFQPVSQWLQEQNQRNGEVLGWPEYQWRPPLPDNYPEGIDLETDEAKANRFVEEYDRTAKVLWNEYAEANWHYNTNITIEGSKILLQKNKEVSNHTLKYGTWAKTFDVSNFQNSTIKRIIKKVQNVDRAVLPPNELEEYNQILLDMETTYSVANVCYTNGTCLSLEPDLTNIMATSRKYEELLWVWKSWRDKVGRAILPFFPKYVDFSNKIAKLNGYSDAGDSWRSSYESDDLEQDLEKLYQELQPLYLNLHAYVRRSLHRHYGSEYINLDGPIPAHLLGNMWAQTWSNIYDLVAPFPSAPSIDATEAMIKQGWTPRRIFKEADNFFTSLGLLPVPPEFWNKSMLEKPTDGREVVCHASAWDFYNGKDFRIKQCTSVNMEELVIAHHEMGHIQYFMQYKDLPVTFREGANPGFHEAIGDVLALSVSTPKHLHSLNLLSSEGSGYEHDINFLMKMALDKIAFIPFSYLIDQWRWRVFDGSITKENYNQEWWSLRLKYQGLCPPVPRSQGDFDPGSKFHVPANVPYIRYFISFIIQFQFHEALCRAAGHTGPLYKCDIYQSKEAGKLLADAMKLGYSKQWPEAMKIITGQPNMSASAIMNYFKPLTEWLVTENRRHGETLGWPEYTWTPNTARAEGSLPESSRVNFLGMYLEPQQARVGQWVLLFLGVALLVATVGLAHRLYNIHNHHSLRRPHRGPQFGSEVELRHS
One number for each entry, as −log10 of the molar value.

Value sought for every listed molecule: pIC50.
1. O=C(N[C@@H](Cc1ccccc1)P(=O)(O)CC1(C(=O)N[C@@H](Cc2c[nH]c3ccccc23)C(=O)O)CCCC1)c1ccc([N+](=O)[O-])cc1
2. CS(=O)(=O)N[C@@H](CCCCN)C(=O)N[C@@H](Cc1ccccc1)P(=O)(O)CC1(C(=O)N[C@@H](Cc2c[nH]c3ccccc23)C(=O)O)CCCC1

Output:
[8.82, 8.60]

Reference source: ChEMBL document CHEMBL1129117
